Reported pIC50 values for the following compounds.
- TARGET_ENTITY: beta-catenin/TCF4 engagement (Homo sapiens, UniProt P35222)
- Construct: expressed in transfected cells; host or cells: HEK293
- Sequence (P35222 whole entry): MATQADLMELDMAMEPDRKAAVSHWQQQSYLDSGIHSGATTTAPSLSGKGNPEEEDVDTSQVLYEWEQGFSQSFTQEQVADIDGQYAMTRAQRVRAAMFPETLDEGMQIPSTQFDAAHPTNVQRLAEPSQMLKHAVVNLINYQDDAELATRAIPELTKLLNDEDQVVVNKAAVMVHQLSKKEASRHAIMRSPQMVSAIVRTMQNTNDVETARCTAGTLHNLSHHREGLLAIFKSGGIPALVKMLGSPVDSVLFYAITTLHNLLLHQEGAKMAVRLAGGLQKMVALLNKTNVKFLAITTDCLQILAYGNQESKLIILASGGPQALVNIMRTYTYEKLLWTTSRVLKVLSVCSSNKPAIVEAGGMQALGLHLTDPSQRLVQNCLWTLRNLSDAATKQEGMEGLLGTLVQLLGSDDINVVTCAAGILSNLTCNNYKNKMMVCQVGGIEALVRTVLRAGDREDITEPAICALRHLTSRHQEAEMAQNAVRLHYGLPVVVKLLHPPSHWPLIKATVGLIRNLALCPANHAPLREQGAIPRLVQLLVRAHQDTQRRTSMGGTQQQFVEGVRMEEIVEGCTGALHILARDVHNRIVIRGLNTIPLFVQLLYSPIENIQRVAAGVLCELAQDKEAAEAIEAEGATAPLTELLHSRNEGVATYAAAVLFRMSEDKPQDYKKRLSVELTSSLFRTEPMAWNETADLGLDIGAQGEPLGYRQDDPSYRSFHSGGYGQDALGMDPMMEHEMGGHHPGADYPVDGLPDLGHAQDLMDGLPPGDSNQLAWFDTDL
- ASSAY_COMMENT: Nano-BRET target engagement assay (B-cat-Halo & TCF4-Luc in HEK293 cells)
- Type: cell-based
- REPORTED_CONDITIONS: read-out: NanoBRET Abs IC50
pIC50: −log10 of the molar value.
READOUT_NAME: pIC50

COMPOUND: CCCCCCCC(=O)NCCCC[C@H](NC(=O)[C@H](CCC(N)=O)NC(=O)[C@H](Cc1csc2ccccc12)NC(=O)[C@H](Cc1ccsc1)NC(=O)[C@]12CCN(C1)C(=O)OCCCC=CCCCC1(CCCC=CC[C@]3(CCCN3C(C)=O)C(=O)N[C@@H](CC(=O)O)C(=O)N[C@@H](CC(C)(C)C)C(=O)N1)C(=O)N[C@@H](CC(=O)O)C(=O)N[C@@H](CC(=O)O)C(=O)N[C@@H](C)C(=O)N[C@@H](C)C(=O)N[C@@H](Cc1ccccc1)C(=O)N[C@@H](CC(N)=O)C(=O)N2)C(N)=O (some centres unmarked)
READOUT_NAME: pIC50
LIMIT_SIGN: =
OBSERVED_RESULT: 4.95
//
COMPOUND: CC(=O)N1CCC[C@]12CC=CCCCC1(CCCC=CCCCOC(=O)N3CC[C@@](C(=O)N[C@@H](Cc4ccsc4)C(=O)N[C@@H](Cc4csc5ccccc45)C(=O)N[C@@H](CCC(N)=O)C(N)=O)(C3)NC(=O)[C@H](CC(C)C)NC(=O)[C@H](Cc3ccccc3)NC(=O)[C@H](C)NC(=O)[C@H](C)NC(=O)[C@H](CC(=O)O)NC(=O)[C@H](CC(=O)O)NC1=O)NC(=O)[C@H](CC(C)(C)C)NC(=O)[C@H](CC(=O)OCCSSc1ccccc1)NC2=O (some centres unmarked) [I-1953]
READOUT_NAME: pIC50
LIMIT_SIGN: <
OBSERVED_RESULT: 4.70
